Target: Bcl-2 protein (Recombinant Human Bcl-2 Protein) (Homo sapiens)
Construct: purchased Novus NBP2-34889
Sequence (P10415 whole entry): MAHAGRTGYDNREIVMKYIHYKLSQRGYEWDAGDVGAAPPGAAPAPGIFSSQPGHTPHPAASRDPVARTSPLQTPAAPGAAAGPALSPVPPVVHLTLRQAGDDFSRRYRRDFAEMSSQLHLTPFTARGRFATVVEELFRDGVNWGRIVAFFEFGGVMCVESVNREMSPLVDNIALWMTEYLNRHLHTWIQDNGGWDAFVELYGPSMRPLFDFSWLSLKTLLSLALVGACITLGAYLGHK
Experiment: Binding evaluation of mixture library compounds to Bcl-2 using AS-MS (affinity selection mass spectrometry)
Conditions: AS-MS, mixture library, Bcl-2; replicate n = 2; ASMS Ratio(%)=(A−C)/B×100
Procedure: […] Then, analysis of the 1200 compounds was carried out for samples A, B, and C with TraceFinder 5.1 (Thermo Fisher Scientific) and CHANCE Software (in-house), and the ASMS Ratio (%) was calculated according to the following calculation formula. […]
RECORDED ENDPOINT: ASMS ratio (%) n = 2
Only the number, expressed in %, is required.

Provide one value: measured ASMS ratio (%) n = 2 of CCOc1cccc(C#Cc2cc(C(=O)N3CCN(c4ccc(C(=O)NS(=O)(=O)CC56CC7CC(CC(C7)C5)C6)cc4)CC3)cc(C(F)(F)F)c2)c1 [B2A041-01]
−3.7

Provide one value: measured ASMS ratio (%) n = 2 of CCOc1cccc(-c2ccc(C(C)N3CCN(c4ccc(C(=O)NS(=O)(=O)c5ccc(NCCSc6ccccc6)c([N+](=O)[O-])c5)cc4)CC3)cc2)c1 (stereo not drawn) [B2Q097-01]
326.4

Provide one value: measured ASMS ratio (%) n = 2 of CCOc1cccc(-c2cc(CN3CCN(c4ccc(C(=O)NS(=O)(=O)c5ccc(NCCSc6ccccc6)c([N+](=O)[O-])c5)cc4)CC3)cc(OCC)c2)c1 [B2Q055-01]
−8.3

Provide one value: measured ASMS ratio (%) n = 2 of CCOc1cncc(-c2cnn(-c3cc(C(=O)N4CCN(c5ccc(C(=O)NS(=O)(=O)c6ccc(NCCSc7ccccc7)c([N+](=O)[O-])c6)nn5)CC4)cc(C(F)(F)F)c3)c2)c1 [B2Q022-01]
23.6

Provide one value: measured ASMS ratio (%) n = 2 of CCOc1cncc(-c2cc(CN3CCN(c4ccc(C(=O)NS(=O)(=O)c5ccc(NCCSc6ccccc6)c([N+](=O)[O-])c5)nn4)CC3)cc(OC(C)C)c2)c1 [B2Q084-01]
−4.9

Provide one value: measured ASMS ratio (%) n = 2 of CCOc1cncc(-c2ccc(C(=O)N3CCN(c4ccc(C(=O)NS(C)(=O)=O)nn4)CC3)c3ccccc23)c1 [B2I014-01]
2.3

Provide one value: measured ASMS ratio (%) n = 2 of CCOc1cccc(C#Cc2cncc(C(=O)N3CCN(c4ccc(C(=O)NS(=O)(=O)c5ccc(NCCSc6ccccc6)c([N+](=O)[O-])c5)nn4)CC3)c2)c1 [B2Q009-01]
0.5

Provide one value: measured ASMS ratio (%) n = 2 of CCOc1cncc(C#Cc2cncc(C(=O)N3CCN(c4ccc(C(=O)NS(=O)(=O)CC56CC7CC(CC(C7)C5)C6)nn4)CC3)c2)c1 [B2A010-01]
0.0

Provide one value: measured ASMS ratio (%) n = 2 of CCOc1cccc(C#Cc2ccccc2C(=O)N2CCN(c3ccc(C(=O)NS(C)(=O)=O)nn3)CC2)c1 [B2I007-01]
−1.6

Provide one value: measured ASMS ratio (%) n = 2 of CCOc1cncc(-c2csc(CN3CCN(c4ccc(C(=O)N(CC)CC)cc4)CC3)c2)c1 [B4J068-01]
0.0

Provide one value: measured ASMS ratio (%) n = 2 of CCOc1cccc(-c2cc(CN3CCN(c4ccc(C(=O)NS(=O)(=O)c5ccc(NCCSc6ccccc6)c([N+](=O)[O-])c5)nn4)CC3)cc(OCC)c2)c1 [B2Q081-01]
0.6

Provide one value: measured ASMS ratio (%) n = 2 of CCOc1cncc(-c2cc(OC)c(CN3CCN(c4ccc(C(=O)N(CC)CC)nn4)CC3)c(OC)c2)c1 [B4J086-01]
0.0

Provide one value: measured ASMS ratio (%) n = 2 of CCOc1cncc(-c2ccc(CN3CCN(c4ccc(C(=O)NS(=O)(=O)c5ccc(NCCSc6ccccc6)c([N+](=O)[O-])c5)cc4)CC3)cc2C)c1 [B2Q048-01]
90.8

Provide one value: measured ASMS ratio (%) n = 2 of CCOc1cccc(-c2cc(CN3CCN(c4ccc(C(=O)N(CC)CC)nn4)CC3)cc(C(F)(F)F)c2)c1 [B4J087-01]
0.3

Provide one value: measured ASMS ratio (%) n = 2 of CCOc1cncc(-c2cnn(-c3cc(C(=O)N4CCN(c5ccc(C(=O)NS(=O)(=O)c6ccc(NCCSc7ccccc7)c([N+](=O)[O-])c6)cc5)CC4)cc(C(F)(F)F)c3)c2)c1 [B2Q044-01]
−1.3
